Assay: MTT cytotoxicity study
Format: cell-based, C57bl/6j mice
Conditions: male, C57bl/6j, mouse; peritoneal macrophages, 24 h incubation
measure: CC50 at 24 h

Reported CC50 at 24 h for CCOC(=O)C1=C(C)NC(C)=NC1c1ccc(N)cc1 (stereo not drawn) [Compound 10b] : what is it?
178 µM

Request the reported CC50 at 24 h associated with Cc1nc(-c2ccccc2)cc(-c2ccc(N)cc2)n1 [Compound 6b]
65.6 µM

Look at this molecule and give its reported CC50 at 24 h. Cc1nc(-c2ccc(N)cc2)cc(-c2ccc(F)cc2)n1 [Compound 6c]
> 100 µM

Given the molecule Nc1ccc(-c2cc(-c3ccc(F)cc3)n3ncnc3n2)cc1 [Compound 7a] , what is its reported CC50 at 24 h?
> 100 µM

Please report the recorded CC50 at 24 h for Nc1ccc(-c2cc(-c3ccc(N)cc3)n3ncnc3n2)cc1 [Compound 7c] .
47.1 µM

Which CC50 at 24 h is reported for this molecule? CCOC(=O)C1=C(C)Nc2ncnn2C1c1ccc(N)cc1 (stereo not drawn) [Compound 11b]
> 100 µM

What measured CC50 at 24 h goes with Cc1nc(-c2ccccc2)cc(-c2ccccc2N)n1 [Compound 6a] ?
> 100 µM

I am curious: what CC50 at 24 h value has been reported for CSc1nc(-c2ccc(N)cc2)cc(-c2ccc(N)cc2)n1 [Compound 6g] ?
> 100 µM

Given Cc1nc(-c2ccc(N)cc2)cc(-c2cccc(N)c2)n1 [Compound 6d] , state its recorded CC50 at 24 h.
> 100 µM

For the molecule shown here, CCOC(=O)C1=C(C)Nc2ncnn2C1c1cccc(N)c1 (stereo not drawn) [Compound 11a] , give the reported CC50 at 24 h.
> 100 µM

# query: CC50 at 24 h of entry CCOC(=O)C1=C(C)NC(C)=NC1c1cccc(N)c1 (stereo not drawn) [Compound 10a]
> 100 µM

Request the reported CC50 at 24 h associated with Cc1nc(-c2ccc(N)cc2)cc(-c2ccc(N)cc2)n1 [Compound 6e]
> 100 µM

Recorded CC50 at 24 h for C[C@@H]1C[C@H]2[C@@H]3CCC4=CC(=O)C=C[C@]4(C)[C@@]3(F)[C@@H](O)C[C@]2(C)[C@@]1(O)C(=O)CO [Dexamethasone, reference compound] , please?
97.4 µM

Fill in: CC50 at 24 h of Nc1ccc(-c2cc(-c3cccc(N)c3)n3ncnc3n2)cc1 [Compound 7b] is ___
> 100 µM

Entry Nc1ccc(-c2cc(-c3ccc(N)cc3)nc(N)n2)cc1 [Compound 6f] : reported CC50 at 24 h = ?
96.1 µM
